- Test system: SW-620 colon
- experimental.protocol: NCI tumour cell line growth inhibition, 48 h
Label yes when TGI is at or above 5 µM; anything below gets no.

O=C(O)CC(CC(=O)O)n1cccc1; yes
CCOC(=O)c1c(C)n(Cc2ccc(Cl)cc2Cl)c2c1cc(O)c1[nH]c(Cc3ccccc3)nc12; yes
Nc1ccccc1SC(CC(=O)c1ccccc1)c1c(Cl)cccc1Cl (stereo not given); yes
O=C(OCc1ccccc1)N1N=NC2C3CC(OCc4ccccc4)(OCc4ccccc4)C(O3)C21 (stereo not given); yes
N#Cc1ccccc1NC(=O)C(O)C(O)C(O)C(O)C=O (stereo not given); yes
COc1cc(/C=C2\CC3C4CC=C5C[C@@H](N6CCCC6)CC[C@]5(C)C4CC[C@]3(C)[C@H]2OC(C)=O)ccc1OCCCn1ccnc1 (stereo not given in full); no
O=C(/C=C/c1cccc(Cl)c1)c1ccccc1; no
CC1(C)COC(c2cccc(C(=O)c3ccccc3)c2)=N1; yes
O=C1Sc2sc(=S)sc2SC1c1ccccc1 (stereo not given); yes
COc1cccc(C2c3cc4c(cc3OC(N3CCCC3)C2c2ccccc2)OCO4)c1O (stereo not given); yes

* * *

- System: UACC-257 melanoma
- experimental.protocol: NCI tumour cell line growth inhibition, 48 h
readout.name: TGI

CCc1cn(C2CC(CO)C(CO)S2)c(=O)[nH]c1=O (stereo not given); > 100 µM
COc1c(O)ccc(/C=N/NC(=S)NCOCCOC(C)=O)c1OC; > 100 µM
CCCCCCCCC#CCCCCCCC(F)C(=O)O (stereo not given); > 100 µM
COc1cc(/C=C2\CC3C4CC=C5C[C@@H](N6CCCC6)CC[C@]5(C)C4CC[C@]3(C)[C@H]2OC(C)=O)ccc1OCCCn1ccnc1 (stereo not given in full); 5.27 µM
Cc1ccc(C(=O)c2[nH]c(NCc3ccccc3)c(C(=S)Nc3ccccc3)c2N)cc1; 18.4 µM
Cc1cc(NS(=O)(=O)c2ccc(NC(=O)c3ccc4nc5ccccc5c(Nc5ccc(S(N)(=O)=O)cc5)c4c3)cc2)no1; 57.8 µM
C=CC(=O)N1CCN(c2nc(OC[C@@H]3CCCN3C)nc3c(F)c(-c4nc(N)cc(C)c4C(F)(F)F)c(Cl)cc23)[C@@H](C)C1; 3 µM
NC(N)=NS(=O)(=O)c1ccc(NCc2cccc3c(=O)c4ccc(Cl)cc4oc23)cc1; > 25 µM
C=CCN=C1NC(=O)C(CC(=O)Nc2ccc([N+](=O)[O-])cc2[N+](=O)[O-])S1 (stereo not given); > 100 µM
CCOC1OC(CO[Si](C)(C)C(C)(C)C)C(O)CC1n1ccc(=O)[nH]c1=O (stereo not given); > 100 µM
CCCOC(=O)C1C(c2ccc(OC)cc2)NC(c2ccc(OC)cc2)C(C(=O)OCCC)S1(=O)=O (stereo not given); > 100 µM
COc1ccccc1OC/C(N=Cc1cccnc1)=N/NC(=O)c1ccncc1; > 100 µM
O=C(N/N=C/c1coc2ccc(Cl)cc2c1=O)c1cc(O)c(O)c(O)c1; > 100 µM
Nc1ncnc2c1ncn2C1(CO)OC(CO)C(O)C1O (stereo not given); > 100 µM
Cc1ccccc1-c1cc(=O)c2cc(C)c(C)c(C(=O)O)c2o1; > 100 µM
COC(=O)c1cc2c3cc(Cl)ccc3[nH]c2c2ncccc12; > 100 µM
COc1cccc(/C=C2\COc3ccc(O)c(O)c3C2=O)c1OC; 7.18 µM
O=C(NCCc1nccs1)c1cnc2c(S)cccc2c1; 15.3 µM
Cc1ccccc1-n1c(=O)nc2n(-c3ccc(C(C)(C)C)cc3)c3ccccc3cc-2c1=O; 37.1 µM
COc1ccc(C)cc1-c1ccc(-c2cc(C)ccc2OC)o1; > 100 µM

* * *

- Test system: XF 498 CNS
Possible outcomes: active, inactive

COc1cc(CNc2ccc(C)cc2)cc(OC)c1OC; inactive
O=S(=O)([O-])c1ccc(C=Nc2ccccc2)c([O-])c1.O=S(=O)([O-])c1ccc(C=Nc2ccccc2)c([O-])c1.[Co+2]; inactive
CCOC(=O)c1ccc(N[C@@H]2c3cc4c(cc3C(c3cc(OC)c(O)c(OC)c3)[C@H]3C(=O)OCC32)OCO4)cc1 (some centres undefined); active
CC[C@@]1(O)C(=O)OCc2c1cc1n(c2=O)Cc2cc3c(N)c(OC)ccc3nc2-1; active

* * *

- Test system: OVCAR-4 ovarian
- experimental.protocol: NCI tumour cell line growth inhibition, 48 h
Listed here are molecules together with their documented TGI.
readout.name: TGI

COc1cccc(-c2nc(N)c(C#N)c3c2CCS(=O)(=O)c2ccc(C)cc2-3)c1; > 100 µM
c1ccc([P+](Cc2ccc(C[P+](c3ccccc3)(c3ccccc3)c3ccccc3)s2)(c2ccccc2)c2ccccc2)cc1; > 100 µM
COc1ccc(/C=N/n2c(Cc3ccccc3)n[nH]c2=O)c(OC)c1; > 100 µM
COC(=O)/C=C1\C(=O)Nc2ccc(Br)cc21; 5.84 µM
COc1ccc(C(=O)c2no[n+]([O-])c2C(=O)c2ccc(OC)cc2)cc1; 6.26 µM
CC1(C)C2CCC1(C)C(NC(=O)COCCOCC(N)=O)C2 (stereo unspecified); > 100 µM

* * *

- Test system: SK-MEL-2 melanoma
- experimental.protocol: NCI tumour cell line growth inhibition, 48 h
readout.name: TGI

Cc1ccccc1-n1c(=O)nc2n(-c3ccc(C(C)(C)C)cc3)c3ccccc3cc-2c1=O; 34.8 µM
CCOC(=O)CCC(NC(=O)c1ccc(Oc2nc3cc(N)cc(N)c3nc2-c2ccccc2)cc1)C(=O)OCC (stereo not given); > 100 µM
COC(=O)C1=CCC[C@H]2[C@@]1(COC(C)=O)CC[C@@H](C)[C@]2(C)CC(=O)c1ccoc1; > 50 µM
COc1ccccc1NC(=S)Nc1ccccn1; > 100 µM
CC1=C(C(=O)Nc2cc(F)c(F)cc2F)C(c2ccc(N(C)C)cc2)C(C(=O)Nc2cc(F)c(F)cc2F)=C(C)N1; > 100 µM

* * *

TGI values for the compounds below.
- System: U251 CNS
- experimental.protocol: NCI tumour cell line growth inhibition, 48 h
readout.name: TGI

Cc1ccc2c(n1)C(=O)c1cc(C)c(C)cc1C2=O; > 100 µM
O=C(Nc1ccc(Br)cc1)c1cc(Br)ccc1O; > 100 µM
COc1ccc(-n2c(C)nc3ccc(NC4OC(COC(C)=O)C(OC(C)=O)C(OC(C)=O)C4OC(C)=O)cc3c2=O)cc1 (stereo not drawn); > 100 µM
C=CCN=C1NC(=O)C(CC(=O)Nc2ccc([N+](=O)[O-])cc2[N+](=O)[O-])S1 (stereo not drawn); > 100 µM
CCSc1c2cc(OC)ccc2nc2ccc(OC)cc12; > 79.2 µM
Fc1nc(-c2c3ccccc3c3sc4ccccc4n23)nc(N2CCOCCOCCOCCOCC2)n1; > 100 µM
CC(=O)NC1=C(NCCO)C(=O)c2ccccc2C1=O; > 50 µM
CCC(=O)NC(NNS(=O)(=O)c1ccc(C)cc1)(C(F)(F)F)C(F)(F)F; > 10 µM
Cc1nc2sc(C(=O)Nc3cccc4c3OCCO4)c(N)c2cc1C(C)O (stereo not drawn); > 100 µM
COc1ccc(-c2c(C#N)c(N)nc(Sc3ccccc3N)c2C#N)cc1; 61 µM
COc1ccc(C(=O)c2[nH]c(Nc3cc(C)ccn3)c(C(=S)Nc3ccccc3)c2N)cc1; 36.4 µM
O=C1CC2=CCCC2O1 (stereo not drawn); > 100 µM
COc1ccc(-n2c(C)nc3ccc(NC4OCC(OC(C)=O)C(OC(C)=O)C4OC(C)=O)cc3c2=O)cc1 (stereo not drawn); > 100 µM
COc1ccccc1NC(=S)Nc1ccccn1; > 100 µM
C=C(Cl)C(Cl)(CBr)CCCC(C)C (stereo not drawn); 21.9 µM
CC1=CC2=C(C=O)C(=O)[C@](C)(O)[C@@H](O)C2=CO1; > 76.8 µM
O=C1C=CC(=O)N1c1ccc2ccccc2c1; 33.8 µM
CCc1n[nH]c(=O)n1N; > 100 µM
COC(=O)/C=C1/OC(c2ccccc2)=C(Br)C1=O; > 100 µM
CC(=O)CC(=O)Nc1ccc(OS(N)(=O)=O)cc1; > 100 µM
CC(=O)/C=C1/C(=O)C(CC(C)C)=C1CC(C)C; > 100 µM
O=C1/C(=C/c2ccc([N+](=O)[O-])s2)Oc2ccc(Br)cc21; 0.482 µM
O=C(O)c1cc(-c2ccc3cc(O)c(O)cc3c2)ccc1O; > 12.5 µM

* * *

- Tested on: HOP-62 NSCLC
- experimental.protocol: NCI tumour cell line growth inhibition, 48 h
readout.name: TGI

Fc1nc(-c2c3ccccc3c3sc4ccccc4n23)nc(N2CCOCCOCCOCCOCC2)n1; > 100 µM
CSCCCNC(=O)c1csc(-c2csc(CCNC(=O)CNC(=O)OC(C)(C)C)n2)n1; > 100 µM
O=C(c1ccsc1)c1nccc2c1cnc1ccccc12; > 100 µM
Cc1c(C(=O)Nc2ccc(Oc3ccnc4cc(OCC(C)(C)O)ccc34)c(F)c2)c(=O)n(-c2ccccc2)n1C; > 100 µM
CC(=O)OC1C(C)OC(Oc2c(-c3ccc(O)cc3)oc3cc(O)cc(O)c3c2=O)C(O)C1OC(C)=O (centres undefined); > 100 µM
Cc1nsc2cc(Cl)n(C)c(=O)c12; > 100 µM
COc1cc(/C=C2\CC3C4CC=C5C[C@@H](N6CCCC6)CC[C@]5(C)C4CC[C@]3(C)[C@H]2OC(C)=O)ccc1OCCCn1ccnc1 (some centres undefined); 1.08 µM
O=C(N/N=C\c1ccc([N+](=O)[O-])cc1)Nc1ccc2ccccc2c1; 51.2 µM
Cc1cc(N)c2cc(NC(=O)/C=C\c3ccccc3Cl)ccc2n1; 1.73 µM

These measurements were taken from PubChem BioAssay (NCI).
